Each recorded value in this set is attributed to ChEMBL document CHEMBL2021783.

Reported log10 IC50 for target or system Acetylcholinesterase (Electrophorus electricus), by entry.
Kindly note that the scale is log10 and the underlying IC50 is in nM.

Examples from the recorded data:
# CHEMICAL SMILES, log10 IC50
measured = [
    ("c1ccc2sc(-c3ccc(OCCCCNc4c5c(nc6ccccc46)CCCC5)cc3)nc2c1", 2.02),
    ("c1ccc2sc(-c3ccc(OCCCCCCNc4c5c(nc6ccccc46)CCCC5)cc3)nc2c1", 1.97),
    ("COc1ccc2cc3[n+](cc2c1OCCCNC(=O)c1cc2ccccc2[nH]1)CCc1cc2c(cc1-3)OCO2", 2.99),
]

Prompt line: Form field: reported log10 IC50 of c1ccc2oc(-c3ccc(OCCCNc4c5c(nc6ccccc46)CCCC5)cc3)nc2c1
Response line: 2.68

Prompt line: # query: log10 IC50 of entry COc1ccc2cc3[n+](cc2c1OCCCOc1ccc(-c2nc4ccccc4o2)cc1)CCc1cc2c(cc1-3)OCO2
Response line: 3.33

Prompt line: // query log10 IC50 value for entry c1ccc2oc(-c3ccc(OCCCNc4c5c(nc6ccccc46)CCCC5)cc3)cc2c1
Response line: 1.76

Prompt line: Param item = COc1ccc2cc3[n+](cc2c1OCCOc1ccc(-c2cc4ccccc4[nH]2)cc1)CCc1cc2c(cc1-3)OCO2 ; retrieve measured log10 IC50.
Response line: 3.03

Prompt line: Record request: log10 IC50 value, item c1ccc2oc(-c3ccc(OCCCCNc4c5c(nc6ccccc46)CCCC5)cc3)cc2c1
Response line: 2.30

Prompt line: Any idea what its log10 IC50 is? The compound is COc1ccc2cc3[n+](cc2c1OCCCNC(=O)c1cc2ccccc2o1)CCc1cc2c(cc1-3)OCO2
Response line: 3.29

Prompt line: Using the record for COc1ccc2cc3[n+](cc2c1OCCOc1ccc(-c2nc4ccccc4o2)cc1)CCc1cc2c(cc1-3)OCO2 , report its log10 IC50.
Response line: 3.52

Prompt line: Field request: log10 IC50 | item: c1ccc2sc(-c3ccc(OCCCNc4c5c(nc6ccccc46)CCCC5)cc3)nc2c1
Response line: 1.23

Prompt line: Entry COc1ccc2cc3[n+](cc2c1OCCCOc1ccc(-c2nc4ccccc4s2)cc1)CCc1cc2c(cc1-3)OCO2 has what log10 IC50?
Response line: 3.17
